# test-details: Selectivity ratio of IC50 for inhibition of human mitochondrial ribosome Mit 13 hybridized with Mycobacterium smegmatis ribosome to IC50 for inhibition of Mycobacterium smegmatis wild type ribosomes
measure: Ratio IC50
One number for each entry.

{"molecule": "NC[C@@H]1O[C@H](O[C@H]2[C@@H](O)[C@H](O[C@@H]3[C@@H](O)[C@H](N)C[C@H](N)[C@H]3O[C@H]3O[C@H]4[C@@H](OCC[C@@H]4O)[C@H](O)[C@H]3N)O[C@@H]2CO)[C@H](N)[C@@H](O)[C@@H]1O", "Ratio IC50": 1920}
{"molecule": "NC[C@@H]1O[C@H](O[C@H]2[C@@H](O)[C@H](O[C@@H]3[C@@H](O)[C@H](N)C[C@H](N)[C@H]3O[C@H]3O[C@H]4[C@@H](OC[C@H]4O)[C@H](O)[C@H]3N)O[C@@H]2CO)[C@H](N)[C@@H](O)[C@@H]1O", "Ratio IC50": 655}
{"molecule": "NC[C@@H]1O[C@H](O[C@H]2[C@@H](O)[C@H](O[C@@H]3[C@@H](O)[C@H](N)C[C@H](N)[C@H]3O[C@H]3O[C@H]4[C@@H](OCCC[C@@H]4O)[C@H](O)[C@H]3N)O[C@@H]2CO)[C@H](N)[C@@H](O)[C@@H]1O", "Ratio IC50": 3420}

Kindly review the next molecule as well.
Name the recorded Ratio IC50 for NC[C@@H]1O[C@H](O[C@H]2[C@@H](O)[C@H](O[C@@H]3[C@@H](O)[C@H](N)C[C@H](N)[C@H]3O[C@H]3O[C@H](CO)[C@@H](O)[C@H](O)[C@H]3N)O[C@@H]2CO)[C@H](N)[C@@H](O)[C@@H]1O [PAROMOMYCIN] . 3970

====

# test-details: Inhibition of human cytoplasmic ribosome Cyt 14 hybridized with Mycobacterium smegmatis ribosome assessed as inhibition of translation activity using Firefly luciferase mRNA reporter based luminescence analysis
measure: IC50 (µM)
Give bare numbers, in µM.

{"compound-structure": "NC[C@@H]1O[C@H](O[C@H]2[C@@H](O)[C@H](O[C@@H]3[C@@H](O)[C@H](N)C[C@H](N)[C@H]3O[C@H]3O[C@H]4[C@@H](OCC[C@@H]4O)[C@H](O)[C@H]3N)O[C@@H]2CO)[C@H](N)[C@@H](O)[C@@H]1O", "IC50 [µM]": 120}

For every item below, please supply its IC50.
1. NC[C@@H]1O[C@H](O[C@H]2[C@@H](O)[C@H](O[C@@H]3[C@@H](O)[C@H](N)C[C@H](N)[C@H]3O[C@H]3O[C@H]4[C@@H](OC[C@@H]4O)[C@H](O)[C@H]3N)O[C@@H]2CO)[C@H](N)[C@@H](O)[C@@H]1O
2. NC[C@@H]1O[C@H](O[C@H]2[C@@H](O)[C@H](O[C@@H]3[C@@H](O)[C@H](N)C[C@H](N)[C@H]3O[C@H]3O[C@H]4[C@@H](OCC[C@H]4O)[C@H](O)[C@H]3N)O[C@@H]2CO)[C@H](N)[C@@H](O)[C@@H]1O
3. NC[C@@H]1O[C@H](O[C@H]2[C@@H](O)[C@H](O[C@@H]3[C@@H](O)[C@H](N)C[C@H](N)[C@H]3O[C@H]3O[C@H]4[C@@H](OC[C@H]4O)[C@H](O)[C@H]3N)O[C@@H]2CO)[C@H](N)[C@@H](O)[C@@H]1O

40
557
276

====

# Test system: Enterobacter cloacae
# test-details: Antibacterial activity against Enterobacter cloacae AG290
# Assay type: functional
measure: MIC (µg/mL)
Give bare numbers, in µg/mL.

{"compound-structure": "C[C@@H]1C[C@H](O)[C@H]2O[C@H](O[C@H]3[C@H](O[C@@H]4O[C@H](CO)[C@@H](O[C@H]5O[C@@H](CN)[C@@H](O)[C@H](O)[C@H]5N)[C@H]4O)[C@@H](O)[C@H](N)C[C@@H]3N)[C@H](N)[C@@H](O)[C@@H]2O1", "readout-units": "µg/mL", "MIC": 2}

Next item in the queue.
Need MIC, item NC[C@@H]1O[C@H](O[C@H]2[C@@H](O)[C@H](O[C@@H]3[C@@H](O)[C@H](N)C[C@H](N)[C@H]3O[C@H]3O[C@H](CO)[C@@H](O)[C@H](O)[C@H]3N)O[C@@H]2CO)[C@H](N)[C@@H](O)[C@@H]1O 2

====

# System: Acinetobacter baumannii
# test-details: Antibacterial activity against Acinetobacter baumannii AG225
# Assay type: functional
Just a reminder that ties go to N: only MIC strictly below 8 µg/mL counts as Y.

Worked set:
{"compound-structure": "NC[C@@H]1O[C@H](O[C@H]2[C@@H](O)[C@H](O[C@@H]3[C@@H](O)[C@H](N)C[C@H](N)[C@H]3O[C@H]3O[C@H]4[C@@H](OCCC[C@H]4O)[C@H](O)[C@H]3N)O[C@@H]2CO)[C@H](N)[C@@H](O)[C@@H]1O", "category-label": "N"}
{"compound-structure": "C[C@@H]1C[C@@H](O)[C@H]2O[C@H](O[C@H]3[C@H](O[C@@H]4O[C@H](CO)[C@@H](O[C@H]5O[C@@H](CN)[C@@H](O)[C@H](O)[C@H]5N)[C@H]4O)[C@@H](O)[C@H](N)C[C@@H]3N)[C@H](N)[C@@H](O)[C@@H]2O1", "category-label": "N"}
{"compound-structure": "NC[C@@H]1O[C@H](O[C@H]2[C@@H](O)[C@H](O[C@@H]3[C@@H](O)[C@H](N)C[C@H](N)[C@H]3O[C@H]3O[C@H]4[C@@H](OC[C@@H]4O)[C@H](O)[C@H]3N)O[C@@H]2CO)[C@H](N)[C@@H](O)[C@@H]1O", "category-label": "N"}
{"compound-structure": "NC[C@@H]1O[C@H](O[C@H]2[C@@H](O)[C@H](O[C@@H]3[C@@H](O)[C@H](N)C[C@H](N)[C@H]3O[C@H]3O[C@H]4[C@@H](OCCC[C@@H]4O)[C@H](O)[C@H]3N)O[C@@H]2CO)[C@H](N)[C@@H](O)[C@@H]1O", "category-label": "Y"}
{"compound-structure": "NC[C@@H]1O[C@H](O[C@H]2[C@@H](O)[C@H](O[C@@H]3[C@@H](O)[C@H](N)C[C@H](N)[C@H]3O[C@H]3O[C@H]4[C@@H](OCC[C@H]4O)[C@H](O)[C@H]3N)O[C@@H]2CO)[C@H](N)[C@@H](O)[C@@H]1O", "category-label": "N"}
{"compound-structure": "NC[C@@H]1O[C@H](O[C@H]2[C@@H](O)[C@H](O[C@@H]3[C@@H](O)[C@H](N)C[C@H](N)[C@H]3O[C@H]3O[C@H](CO)[C@@H](O)[C@H](O)[C@H]3N)O[C@@H]2CO)[C@H](N)[C@@H](O)[C@@H]1O", "category-label": "Y"}

Switching to the query record.
Below 8 µg/mL on MIC? Entry C[C@@H]1C[C@H](O)[C@H]2O[C@H](O[C@H]3[C@H](O[C@@H]4O[C@H](CO)[C@@H](O[C@H]5O[C@@H](CN)[C@@H](O)[C@H](O)[C@H]5N)[C@H]4O)[C@@H](O)[C@H](N)C[C@@H]3N)[C@H](N)[C@@H](O)[C@@H]2O1 Y

====

# test-details: Inhibition of human mitochondrial ribosome Mit 13 hybridized with Mycobacterium smegmatis ribosome assessed as inhibition of translation activity using Firefly luciferase mRNA reporter based luminescence analysis
Define the label as rule met when IC50 is strictly less than 200 µM and as rule not met in all remaining cases.

Take a look at these entries with their results.
{"compound": "NC[C@@H]1O[C@H](O[C@H]2[C@@H](O)[C@H](O[C@@H]3[C@@H](O)[C@H](N)C[C@H](N)[C@H]3O[C@H]3O[C@H]4[C@@H](OCCC[C@@H]4O)[C@H](O)[C@H]3N)O[C@@H]2CO)[C@H](N)[C@@H](O)[C@@H]1O", "category-label": "rule not met"}
{"compound": "NC[C@@H]1O[C@H](O[C@H]2[C@@H](O)[C@H](O[C@@H]3[C@@H](O)[C@H](N)C[C@H](N)[C@H]3O[C@H]3O[C@H]4[C@@H](OC[C@H]4O)[C@H](O)[C@H]3N)O[C@@H]2CO)[C@H](N)[C@@H](O)[C@@H]1O", "category-label": "rule met"}
{"compound": "NC[C@@H]1O[C@H](O[C@H]2[C@@H](O)[C@H](O[C@@H]3[C@@H](O)[C@H](N)C[C@H](N)[C@H]3O[C@H]3O[C@H]4[C@@H](OCC[C@@H]4O)[C@H](O)[C@H]3N)O[C@@H]2CO)[C@H](N)[C@@H](O)[C@@H]1O", "category-label": "rule not met"}
{"compound": "NC[C@@H]1O[C@H](O[C@H]2[C@@H](O)[C@H](O[C@@H]3[C@@H](O)[C@H](N)C[C@H](N)[C@H]3O[C@H]3O[C@H]4[C@@H](OCCC[C@H]4O)[C@H](O)[C@H]3N)O[C@@H]2CO)[C@H](N)[C@@H](O)[C@@H]1O", "category-label": "rule not met"}

IC50 under 200 µM? Item: NC[C@@H]1O[C@H](O[C@H]2[C@@H](O)[C@H](O[C@@H]3[C@@H](O)[C@H](N)C[C@H](N)[C@H]3O[C@H]3O[C@H]4[C@@H](OC[C@@H]4O)[C@H](O)[C@H]3N)O[C@@H]2CO)[C@H](N)[C@@H](O)[C@@H]1O rule met

Is it true that IC50 reported for NC[C@@H]1O[C@H](O[C@H]2[C@@H](O)[C@H](O[C@@H]3[C@@H](O)[C@H](N)C[C@H](N)[C@H]3O[C@H]3O[C@H]4[C@@H](OCC[C@H]4O)[C@H](O)[C@H]3N)O[C@@H]2CO)[C@H](N)[C@@H](O)[C@@H]1O is less than 200 µM? rule not met

Bench note: check whether C[C@@H]1C[C@H](O)[C@H]2O[C@H](O[C@H]3[C@H](O[C@@H]4O[C@H](CO)[C@@H](O[C@H]5O[C@@H](CN)[C@@H](O)[C@H](O)[C@H]5N)[C@H]4O)[C@@H](O)[C@H](N)C[C@@H]3N)[C@H](N)[C@@H](O)[C@@H]2O1 shows IC50 below 200 µM rule not met

Dear reviewer, please state whether C[C@@H]1C[C@@H](O)[C@H]2O[C@H](O[C@H]3[C@H](O[C@@H]4O[C@H](CO)[C@@H](O[C@H]5O[C@@H](CN)[C@@H](O)[C@H](O)[C@H]5N)[C@H]4O)[C@@H](O)[C@H](N)C[C@@H]3N)[C@H](N)[C@@H](O)[C@@H]2O1 has IC50 strictly beneath 200 µM. rule not met

Does the reported IC50 of NC[C@@H]1O[C@H](O[C@H]2[C@@H](O)[C@H](O[C@@H]3[C@@H](O)[C@H](N)C[C@H](N)[C@H]3O[C@H]3O[C@H](CO)[C@@H](O)[C@H](O)[C@H]3N)O[C@@H]2CO)[C@H](N)[C@@H](O)[C@@H]1O [PAROMOMYCIN] stay below 200 µM? rule met
